Measured bioavailability of individual entries
TEST: Rat in vivo pharmacokinetic assay (IV and PO)
Design: species or system SD rats
CONDITION_CONTEXT: plasma; male SD rat, PO 5 mg/kg versus IV 2 mg/kg; read-out: F % (absolute bioavailability)

MOLECULE	bioavailability (%)
OC[C@H]1O[C@@H](c2ccc(Cl)c(Cc3ccc(O[C@H]4CCOC4)cc3)c2)[C@H](O)[C@@H](O)[C@@H]1O [BI-10773, reference compound]	16.5
OC[C@H]1OC(c2ccc(Cl)c(Cc3ccc(OC4C5COCC54)cc3)c2)[C@H](O)[C@@H](O)[C@@H]1O (stereo partly shown) [Compound 10]	18.9
OC[C@H]1OC(c2ccc(Cl)c(Cc3ccc(C4CCC5(CCC5)CC4)cc3)c2)[C@H](O)[C@@H](O)[C@@H]1O (stereo partly shown) [Compound 13]	35.9
OC[C@H]1OC(c2ccc(Cl)c(Cc3ccc(OC4CC5CC5C4)cc3)c2)[C@H](O)[C@@H](O)[C@@H]1O (stereo partly shown) [Compound 4]	87.2

Attribution: patent US10253010B2
